Target: UniProtKB P25116
Sequence (P25116 22-425): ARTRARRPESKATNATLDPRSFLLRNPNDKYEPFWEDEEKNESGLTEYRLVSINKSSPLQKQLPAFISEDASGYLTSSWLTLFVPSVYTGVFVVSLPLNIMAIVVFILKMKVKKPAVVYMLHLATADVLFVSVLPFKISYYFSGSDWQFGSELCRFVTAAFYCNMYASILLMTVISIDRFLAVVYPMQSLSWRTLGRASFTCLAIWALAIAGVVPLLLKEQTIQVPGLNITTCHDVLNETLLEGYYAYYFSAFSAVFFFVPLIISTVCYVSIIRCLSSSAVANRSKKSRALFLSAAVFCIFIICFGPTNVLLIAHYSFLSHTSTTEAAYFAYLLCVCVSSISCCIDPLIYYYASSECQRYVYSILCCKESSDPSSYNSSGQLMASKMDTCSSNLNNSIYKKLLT
Test: Calcium ion influx experiment (FLIPR), PAR1 inhibition activity, HEK293-Ga15-PAR1 cell strain, agonist haTRAP
Format: cell-based
Conditions: slope of 4-PL dosage-effect curve; HEK293-Ga15-PAR1 cells, haTRAP 3 μM
Description: Embodiment 6: Determination of Biological Activity (PAR1 Inhibition Activity) of the Compound […] The agonist was transferred from the 384-well compound plate (FLIPR) to the cell plate at 5 μL/well according to the program set by FLIPR, and the fluorescent signals in each well of the cell plate were simultaneously read. […]
Output met for Slope not less than 1; output not met otherwise.

Answered examples (5):
1. COC(=O)[C@]1(C)[C@H](O)CC[C@@]2(C)[C@H](/C=C/c3ccc(-c4cccc(F)c4)cn3)C3(CC[C@@H]21)CO3 (stereo partly shown) [Compound I-9] : not met
2. C[C@@]12CC[C@@H](O)[C@@](C)(C(=O)O)[C@H]1CCC1(CO1)[C@H]2/C=C/c1ccc(-c2cccc(F)c2)cn1 (stereo partly shown) [Compound I-8] : met
3. COC[C@@]1(C)[C@H]2CCC3(CO3)[C@@H](/C=C/c3ccc(-c4cccc(F)c4)cn3)[C@]2(C)CC[C@H]1O (stereo partly shown) [Compound I-5] : met
4. CC(C)c1ccc(Cn2ccc3c4c(N)nc(NC5CC5)nc4ccc32)cc1 [SCH79797, reference compound] : not met
5. CO[C@@H]1CC[C@]2(C)[C@H](CCC3(CO3)[C@H]2/C=C/c2ccc(-c3cccc(F)c3)cn2)[C@]1(C)CO (stereo partly shown) [Compound I-6] : met

Exam item: decide whether the reported Slope for C[C@@]1(C(=O)O)C(=O)CC[C@@]2(C)[C@H](/C=C/c3ccc(-c4cccc(F)c4)cn3)C3(CC[C@H]12)CO3 (stereo partly shown) [Compound I-10] is at least 1.
met
